The origin of these recorded values is ChEMBL document CHEMBL4431338.

system: Staphylococcus aureus; test: Potentiation of vancomycin-mediated reduction in CFU per biofilm of Staphylococcus aureus Mu50 after 24 hrs; type: functional, organism-based; conditions: Mu50, 24 h
Quick rule for you: EC50 under 30 µM gets Y, anything else gets N.

Reference set, count: 5
O=C(NC[C@H]1OC[C@@](O)(CNC(=O)c2ccccc2)[C@@H]1O)c1ccccc1 | N
O=C(NC[C@]1(O)CO[C@H](CN2Cc3ccccc3C2=O)[C@H]1O)c1ccccc1 | N
O=C(NC[C@]1(O)CO[C@H](CNC(=O)c2ccccc2OC(F)F)[C@H]1O)c1ccccc1 | Y
O=C(NC[C@@H]1OC[C@@](O)(CNC(=O)c2ccccc2)[C@@H]1O)c1ccccc1 | N
O=C(NC[C@]1(O)CO[C@H](CNC(=O)c2ccccc2Br)[C@H]1O)c1ccccc1 | Y

Quick check: does O=C(NC[C@]1(O)CO[C@H](CNCc2ccccc2)[C@H]1O)c1ccccc1 have EC50 under 30 µM?
N

Quick check: does O=C(NC[C@]1(O)CO[C@H](CNC(=O)c2ccccc2I)[C@H]1O)c1ccccc1 have EC50 under 30 µM?
Y

Quick check: does O=C(NC[C@]1(O)CO[C@H](CNC(=O)c2ccccc2OC(F)(F)F)[C@H]1O)c1ccccc1 have EC50 under 30 µM?
N

Quick check: does O=C(NC[C@]1(O)CO[C@H](CNS(=O)(=O)c2ccc(Cl)cc2)[C@H]1O)c1ccccc1 have EC50 under 30 µM?
Y

---

Below, each of the compounds is paired with its reported Activity value.
system: Staphylococcus aureus; experiment: Potentiation of vancomycin-mediated reduction in CFU per biofilm of Staphylococcus aureus Mu50 preincubated with compound at 100 uM for 20 hrs followed by vancomycin addition measured after 24 hrs (reference value: 30 +/- 14%); assay type: functional; design: scale not given: the % may be the effect or the level left
Answer in %, number only, no unit symbol.

Sample answers from the record:
O=C(NC[C@]1(O)CO[C@H](CN2Cc3ccccc3C2=O)[C@H]1O)c1ccccc1 | 75
CN(C[C@H]1OC[C@@](O)(CNC(=O)c2ccccc2)[C@@H]1O)C(=O)c1ccccc1 | 94
O=C(NC[C@]1(O)CO[C@H](CNC(=S)Nc2ccccc2)[C@H]1O)c1ccccc1 | 80
O=C(NC[C@]1(O)CO[C@H](CNS(=O)(=O)c2ccc(-c3ccccc3)cc2)[C@H]1O)c1ccccc1 | 84

Entry O=C(NC[C@]1(O)CO[C@H](CNC(=O)c2ccccc2I)[C@H]1O)c1ccccc1 : reported Activity = ?
96

---

test system: Staphylococcus aureus; assay: Growth inhibition of Staphylococcus aureus Mu50 after 20 hrs by broth microdilution method; type: organism-based; conditions: in vitro
RECORDED METRIC: MIC

Sample answers from the record:
O=C(NC[C@H]1OC[C@@](O)(CNC(=O)c2ccccc2)[C@@H]1O)c1ccccc1 | > 500 µM
CN(C[C@H]1OC[C@@](O)(CNC(=O)c2ccccc2)[C@@H]1O)C(=O)c1ccccc1 | > 500 µM
O=C(NC[C@]1(O)CO[C@H](CNCc2ccccc2)[C@H]1O)c1ccccc1 | > 500 µM
O=C(NC[C@H]1OC[C@@](O)(CNC(=O)c2ccccc2)[C@@H]1O)Nc1ccccc1 | > 500 µM

--- query ---
Entry O=C(NC[C@]1(O)CO[C@H](CNS(=O)(=O)C(F)(F)F)[C@H]1O)c1ccccc1 : reported MIC = ?
> 500 µM
